value-kind: melting point

compound | obs-value
COCc1nc2c3c(ccn2c1C)C(=O)[C@H](O)[C@@H](c1ccccc1)N3 [Example 26] | 168 to 173 °C
COCc1nc2c3c(ccn2c1C)[C@@H](O)[C@H](O)[C@@H](c1ccccc1)N3 [Example 27] | 102 to 104 °C
COCCO[C@@H]1c2ccn3c(Cl)c(C)nc3c2N[C@H](c2ccccc2)[C@H]1O [Example 14] | 123 to 126 °C
Cc1nc2c3c(ccn2c1C)C(=O)C(O)C(c1ccsc1)N3 (stereo not drawn) [Example 1] | 222 to 225 °C
COCCO[C@@H]1c2ccn3c(CO)c(C)nc3c2N[C@H](c2ccccc2)[C@H]1O [Example 22] | 180 to 183 °C
Cc1nc2c3c(ccn2c1C)C(O)CC(c1ccoc1)N3 (stereo not drawn) [Example 7] | 221 to 222 °C
COCCO[C@@H]1c2ccn3c(-c4ccccc4)c(C)nc3c2N[C@H](c2ccccc2)[C@H]1O [Example 25] | 190 to 192 °C
Cc1nc2c3c(ccn2c1C)C(O)CC(c1ccsc1)N3 (stereo not drawn) [Example 4] | 192 to 194 °C
COCCO[C@@H]1c2ccn3c(Br)c(C)nc3c2N[C@H](c2ccccc2)[C@H]1O [Example 13] | 153 to 154 °C

###

melting point reference

compound | melting point
Cc1cn2ccc3c(c2n1)N[C@H](c1ccccc1)[C@@H](O)[C@@H]3O | 119 °C (dec.)
COCCO[C@H]1c2ccn3c(C)c(COC)nc3c2N[C@H](c2ccccc2)[C@H]1O [Example 28a] | 63 to 65 °C
Cc1nc2c3c(ccn2c1C)C(O)C(O)C(c1ccsc1)N3 (stereo not shown) | 134 to 138 °C
Cc1nc2c3c(ccn2c1C)C(=O)CC(c1ccsc1)N3 (stereo not shown) | 176 to 177 °C
